Recorded measurements of growth, one per entry
system: SK-MEL-5 melanoma; experiment: NCI-60 one-dose screen, 48 h (100 = growth as untreated, 0 = no growth, -100 = all killed); conditions: 10 µM unless noted
This is part of a sample that, as a whole, favours compounds with a hit. Of some 83,000 tested, about 20% had one in any assay. Active and inactive are the calls of the source. How the source made its calls: active means growth percent below 10; inactive means the rest.

{"Compound": "COc1ccc2[nH]cc(-c3cc(N)n4nc(-c5c[nH]c6ccc(OC)cc56)cc4n3)c2c1", "Assayed System": "SK-MEL-5 melanoma", "growth": "3.11% (active)"}
{"Compound": "COc1ccc(C(=O)/C=C/c2ccc(OCc3ccc(Cl)cc3)c(OC)c2)cc1OC", "Assayed System": "SK-MEL-5 melanoma", "growth": "55.2% (inactive)"}
{"Compound": "O=C1c2c(c3c4cc(Br)ccc4[nH]c3c3ccc4ccccc4c23)C(=O)N1CCO", "Assayed System": "SK-MEL-5 melanoma", "growth": "100% (inactive)"}
{"Compound": "Cn1cc(-c2cc(N)n3nc(-c4cn(C)c5ccc(Cl)cc45)cc3n2)c2cc(Cl)ccc21", "Assayed System": "SK-MEL-5 melanoma", "growth": "104% (inactive)"}
{"Compound": "O=C(CSc1nc2sc3c(c2c(=O)n1-c1ccc(Cl)cc1)CCCC3)NNC(=O)Nc1cccc(C(F)(F)F)c1", "Assayed System": "SK-MEL-5 melanoma", "growth": "35.4% (inactive)"}
{"Compound": "O=c1[nH]c2ccc(Cl)cc2cc1CSc1ccccc1Nc1nccc(-c2ccc(Cl)cc2)n1", "Assayed System": "SK-MEL-5 melanoma", "growth": "95.1% (inactive)"}
{"Compound": "CCCC(=O)NC(c1cccnc1)c1cc(C)c2cccnc2c1O (stereo not given)", "Assayed System": "SK-MEL-5 melanoma", "growth": "48.7% (inactive)"}
{"Compound": "CC(C)(O)c1cncc(-c2ccc3ncnc(N4CCc5cc(F)c(Cl)cc54)c3c2)c1", "Assayed System": "SK-MEL-5 melanoma", "growth": "13.4% (inactive)"}
{"Compound": "COc1ccc(COc2ccc(/C=C3/C(=O)Nc4cc(Cl)ccc43)cc2)cc1", "Assayed System": "SK-MEL-5 melanoma", "growth": "96.7% (inactive)"}
{"Compound": "C/C(=N/NC(N)=S)c1ccc(Nc2nc(SCC(C)C)nc(-c3ccc(F)cc3)c2C#N)cc1", "Assayed System": "SK-MEL-5 melanoma", "growth": "37.3% (inactive)"}

---

system: HS 578T breast; experiment: NCI-60 one-dose screen, 48 h (100 = growth as untreated, 0 = no growth, -100 = all killed); conditions: 10 µM unless noted
The panel holds about 83,000 compounds, 20% with a hit somewhere; the sample as a whole holds those more often.
Readout: growth (%)

{"Smiles Entry": "COc1cc(/C=C/C(=O)c2ccc(F)cc2)ccc1Oc1nc(NCCO)nc(N2CCOCC2)n1", "Readout": "growth", "Output Unit": "%", "Observed Measurement": 83.8}
{"Smiles Entry": "[Cl][Ru].c1ccc(-c2cccc(-c3ccccn3)n2)nc1.c1ccc(-c2ccnc3c2ccc2c(-c4ccccc4)ccnc23)cc1", "Readout": "growth", "Output Unit": "%", "Observed Measurement": 13.4}
{"Smiles Entry": "CCOC(=O)c1c(Nc2ccccc2)nn2c(N)c(C#N)c(-c3ccc(F)cc3)nc12", "Readout": "growth", "Output Unit": "%", "Observed Measurement": 79.6}
{"Smiles Entry": "CC(=O)c1ccc(Nc2nc(SC(C)C)nc(-c3ccccc3)c2C#N)cc1", "Readout": "growth", "Output Unit": "%", "Observed Measurement": 90.6}
{"Smiles Entry": "O=C(N/N=C/c1ccc[nH]1)c1[nH]c2ccc(Br)cc2c1-c1ccccc1", "Readout": "growth", "Output Unit": "%", "Observed Measurement": 29.5}

---

test system: PC-3 prostate; test: NCI-60 one-dose screen, 48 h; details: 10 µM unless noted
This is part of a sample that, as a whole, favours compounds with a hit. Of some 83,000 tested, about 20% had one in any assay. Calls of active or inactive are those of the source. How the source made its calls: active means growth percent below 10; inactive means the rest.
Classes used: active, inactive

{"Molecule": "COc1cc(/C=C/C(=O)c2cc(OC)c(OC)c(OC)c2)ccc1OCc1ccc(F)cc1", "Answer Label": "inactive"}
{"Molecule": "Cn1cc(-c2cc(N)n3nc(-c4cn(C)c5ccc(Br)cc45)cc3n2)c2cc(Br)ccc21", "Answer Label": "inactive"}
{"Molecule": "Cc1cccc2sc(/N=C(\\N)C(Cl)(Cl)Cl)nc12", "Answer Label": "inactive"}
{"Molecule": "NS(=O)(=O)c1ccc(Nc2nc(Nc3ccccc3)nc(-n3nc(-c4ccccc4)cc3-c3ccccc3)n2)cc1", "Answer Label": "inactive"}
{"Molecule": "COc1cccc(N2CCN(c3ncnc4c3[nH]c3ccc(F)cc34)C[C@@H]2C)c1", "Answer Label": "active"}
{"Molecule": "COc1cc(-c2ccc3ncnc(NC(C)c4ccccc4)c3c2)cnc1OC (centres undefined)", "Answer Label": "inactive"}
{"Molecule": "Cc1nc(-c2cc3ccccc3oc2=O)ccc1C(=O)/C=C/c1ccc(Cl)c(Cl)c1", "Answer Label": "inactive"}
{"Molecule": "COc1ccc(COc2ccc(/C=C3/C(=O)Nc4cc(Cl)ccc43)cc2)cc1", "Answer Label": "inactive"}
{"Molecule": "COc1ccc([C@@H]2c3[nH]c4ccccc4c3CC3C(=O)N(C4CCN(Cc5c(F)cccc5F)CC4)CC(=O)N32)c(OC)c1 (some centres undefined)", "Answer Label": "inactive"}

---

tested on: NCI-H522 lung; assay: NCI-60 one-dose screen, 48 h; conditions: 10 µM unless noted
About 83,000 compounds went through this panel and 20% of them were active in at least one assay; those are over-represented in the sample as a whole. Active and inactive are the calls of the source. How the source made its calls: active means growth percent below 10; inactive means the rest.
Classes used: active, inactive

{"Compound": "COc1ccc(COc2ccc(/C=C3/C(=O)Nc4cc(Cl)ccc43)cc2)cc1", "Assayed System": "NCI-H522 lung", "Answer Label": "inactive"}
{"Compound": "CC(C)Sc1nc(Nc2ccc(S(N)(=O)=O)cc2)c(C#N)c(-c2ccc(F)cc2)n1", "Assayed System": "NCI-H522 lung", "Answer Label": "inactive"}
{"Compound": "CN1CCN(Cc2ccc(NC(=O)c3cncc(C#Cc4cnc5[nH]ncc5c4)c3)cc2C(F)(F)F)CC1", "Assayed System": "NCI-H522 lung", "Answer Label": "inactive"}
{"Compound": "Nc1c(C(=O)Nc2ccc(Cl)cc2)sc2nc(-c3cnccn3)cc(-c3cccs3)c12", "Assayed System": "NCI-H522 lung", "Answer Label": "inactive"}
{"Compound": "CCCC(=O)NC(c1cccc(N(C)C)c1)c1cc(C)c2cccnc2c1O (centres undefined)", "Assayed System": "NCI-H522 lung", "Answer Label": "inactive"}
{"Compound": "COc1cc2nc(-c3ccc(Cl)cc3)cc(OCCCNCC3CCCO3)c2cc1OC (centres undefined)", "Assayed System": "NCI-H522 lung", "Answer Label": "inactive"}
{"Compound": "O=C1NC(=C(Cl)Cl)/C(=N/S(=O)(=O)N2CCCCC2CC2(C(F)(F)F)N=N2)N1 (centres undefined)", "Assayed System": "NCI-H522 lung", "Answer Label": "active"}
{"Compound": "O=C1c2c(c3c4cccnc4[nH]c3c3ccc4ccccc4c23)C(=O)N1CCO", "Assayed System": "NCI-H522 lung", "Answer Label": "inactive"}
{"Compound": "CCN1C(=S)N(c2ccccc2)C2NC(=O)N(/N=C/C=C/c3ccccc3OC)C21 (centres undefined)", "Assayed System": "NCI-H522 lung", "Answer Label": "inactive"}

---

Recorded measurements of growth, one per entry
tested on: CAKI-1 renal; assay: NCI-60 one-dose screen, 48 h (100 = growth as untreated, 0 = no growth, -100 = all killed); details: 10 µM unless noted
The panel holds about 83,000 compounds, 20% with a hit somewhere; the sample as a whole holds those more often. The source made the active and inactive calls. How the source made its calls: active means growth percent below 10; inactive means the rest.
Readout: growth

{"Molecule": "COc1cc(OC)c(C2C(Cl)C(=O)N2Nc2ncnc3ccccc23)cc1OC (stereo not given)", "Assayed System": "CAKI-1 renal", "Observed Measurement": "91.8% (inactive)"}
{"Molecule": "N/C(=N\\c1nc2c(Br)cccc2s1)C(Br)Br", "Assayed System": "CAKI-1 renal", "Observed Measurement": "-19.6% (active)"}
{"Molecule": "N#Cc1ccc(C(=O)CSc2nc(Nc3ccc(S(N)(=O)=O)cc3)c3ccccc3n2)cc1", "Assayed System": "CAKI-1 renal", "Observed Measurement": "102% (inactive)"}
{"Molecule": "N#Cc1c(-c2ccc(Cl)cc2)nc2c(-c3ccccc3)c(Nc3ccccc3)nn2c1N", "Assayed System": "CAKI-1 renal", "Observed Measurement": "35.1% (inactive)"}
{"Molecule": "Fc1ccc(-c2cc3nc(C(Cl)Cl)nc(-c4ccccc4)n3n2)cc1", "Assayed System": "CAKI-1 renal", "Observed Measurement": "-17.5% (active)"}
{"Molecule": "NC(=O)c1c(NC(=O)c2ccc(C3CCCCC3)cc2)sc2c1CCC(=O)C2", "Assayed System": "CAKI-1 renal", "Observed Measurement": "-2.11% (active)"}
{"Molecule": "C/C(=C(/c1ccc(Cl)cc1)c1ccc(OCCN)cc1)c1ccc(C)cc1", "Assayed System": "CAKI-1 renal", "Observed Measurement": "86.6% (inactive)"}
{"Molecule": "N#Cc1c(-c2ccc(Cl)cc2)nc(SCc2ccc([N+](=O)[O-])cc2)nc1N1CCNCC1", "Assayed System": "CAKI-1 renal", "Observed Measurement": "13.6% (inactive)"}
{"Molecule": "C#C[C@]1(O)CC[C@H]2[C@@H]3CC=C4c5sc(Nc6ccc(Cl)cn6)nc5CC[C@]4(C)[C@H]3CC[C@@]21C", "Assayed System": "CAKI-1 renal", "Observed Measurement": "29.1% (inactive)"}
{"Molecule": "CCOC(=O)c1c(NC(=O)c2cccc(C(F)(F)F)c2)sc2cc(O)ccc12", "Assayed System": "CAKI-1 renal", "Observed Measurement": "96.7% (inactive)"}

Data provenance is PubChem BioAssay (NCI).
